Kindly find below pIC50 information for Malate dehydrogenase, mitochondrial (Homo sapiens) taken from the literature.
pIC50: −log10 of the molar value.

Some compounds with recorded pIC50:
| compound | measured-target | reading |
| --- | --- | --- |
| CC(C)Oc1ccc(Cl)c(C2CC(=O)C(Sc3cc(O)ccc3Cl)=C(O)C2)c1Cl (centres undefined) | Malate dehydrogenase, mitochondrial (Homo sapiens) | ≤ 5.00 |
| COc1ccc(CN2C(=O)Cc3c([nH]c4ccc(Br)cc34)-c3ccccc32)cc1 | Malate dehydrogenase, mitochondrial (Homo sapiens) | 5.74 |
| C[C@@H](OC(=O)Cc1ccc(Cl)c(SC2=C(O)CC(c3c(Cl)cccc3Cl)CC2=O)c1)c1ccccc1 (some centres undefined) | Malate dehydrogenase, mitochondrial (Homo sapiens) | ≤ 5.00 |

Q: Form: Entry = COC(=O)Cc1ccc(Cl)c(SC2=C(O)CC(c3c(Cl)cccc3Cl)CC2=O)c1 (centres undefined) | System = Malate dehydrogenase, mitochondrial (Homo sapiens) | pIC50 = ____
Result: ≤ 5.00

Q: Form: Entry = C#CCOc1ccc(C(=O)c2cccc(NC(=O)/C=C/Oc3ccc(C45CC6CC(CC(C6)C4)C5)cc3)c2)cc1 | System = Malate dehydrogenase, mitochondrial (Homo sapiens) | pIC50 = ____
Result: < 4.70

Q: Form: Entry = Cc1ccc2[nH]c3c(c2c1)CC(=O)N(Cc1ccccc1)c1ccccc1-3 | System = Malate dehydrogenase, mitochondrial (Homo sapiens) | pIC50 = ____
Result: 5.21

Q: Form: Entry = O=C1CC(c2c(Cl)cc(N3CCOCC3)cc2Cl)CC(O)=C1Sc1ccccc1Cl (centres undefined) | System = Malate dehydrogenase, mitochondrial (Homo sapiens) | pIC50 = ____
Result: ≤ 5.00

Q: Form: Entry = O=C(O)c1cnc2cc(OCc3ccccc3)ccc2c1O | System = Malate dehydrogenase, mitochondrial (Homo sapiens) | pIC50 = ____
Result: 4.49

Q: Form: Entry = O=C1CC(c2c(Cl)ccc(-c3ccccc3)c2Cl)CC(O)=C1Sc1ccccc1Cl (centres undefined) | System = Malate dehydrogenase, mitochondrial (Homo sapiens) | pIC50 = ____
Result: ≤ 5.00
